The origin of these recorded values is patent US4374773A.

assay: acute toxicity, single oral administration to mice; settings: mouse, in vivo
readout kind: LD50

> print(dat)
                                   compound        result
1  CN(C)C(=O)Nc1ccc2c(c1)C(c1ccccc1F)=NC(C)(C)c1nncn1-2 [Example 5]  > 5000 mg/kg
2  CN(C)C(=O)Nc1ccc2c(c1)C(c1ccccc1Cl)=NCc1nncn1-2 [Example 8]  > 5000 mg/kg
3  Cc1nnc2n1-c1ccc(NC(=O)N(C)C)cc1C(c1ccccc1Cl)=NC2 [Example 10]  > 5000 mg/kg
4  CC1(C)N=C(c2ccccc2Cl)c2cc(NC(=O)N3CCCC3)ccc2-n2cnnc21 [Example 13]  > 5000 mg/kg
5  Cc1nnc2n1-c1ccc(NC(=O)NCCO)cc1C(c1ccccc1Cl)=NC2(C)C [Example 12]  > 5000 mg/kg
6  Cc1nnc2n1-c1ccc(NC(=O)NCCO)cc1C(c1ccccc1F)=NC2(C)C [Example 4]  > 5000 mg/kg

---

Recorded measurements of potassium excretion [K+] in %, based on control animals, one per entry
test system: aldosterone; assay: aldosterone-antagonistic properties in adrenalectomised rats (urine volume, sodium and potassium excretion); format: in vivo, Female Holtzmann rats; conditions: 1 mg/kg p.o., aldosterone s.c. 30 min later, urine collected 3 hours, control = aldosterone only
readout kind: potassium excretion [K+] in %, based on control animals (%)

> print(dat)
                                 mol.smiles  result.unit  numeric.result
1  CN(C)C(=O)Nc1ccc2c(c1)C(c1ccccc1F)=NC(C)(C)c1nncn1-2            %              65
2  Cc1nnc2n1-c1ccc(NC(=O)NCCO)cc1C(c1ccccc1Cl)=NC2(C)C            %              75
3  Cc1nnc2n1-c1ccc(NC(=O)NCCO)cc1C(c1ccccc1F)=NC2(C)C            %              90
4  CC1(C)N=C(c2ccccc2Cl)c2cc(NC(=O)N3CCCC3)ccc2-n2cnnc21            %              72
